# Ki per record follows
Target entity: muscarinic M1 receptor (Rattus norvegicus, UniProt P08482)
Construct: Membranes from frozen rat brains excluding cerebellum were thawed; from tissue; host or cells: rat brain (excluding cerebellum) membranes
Sequence (P08482 whole entry): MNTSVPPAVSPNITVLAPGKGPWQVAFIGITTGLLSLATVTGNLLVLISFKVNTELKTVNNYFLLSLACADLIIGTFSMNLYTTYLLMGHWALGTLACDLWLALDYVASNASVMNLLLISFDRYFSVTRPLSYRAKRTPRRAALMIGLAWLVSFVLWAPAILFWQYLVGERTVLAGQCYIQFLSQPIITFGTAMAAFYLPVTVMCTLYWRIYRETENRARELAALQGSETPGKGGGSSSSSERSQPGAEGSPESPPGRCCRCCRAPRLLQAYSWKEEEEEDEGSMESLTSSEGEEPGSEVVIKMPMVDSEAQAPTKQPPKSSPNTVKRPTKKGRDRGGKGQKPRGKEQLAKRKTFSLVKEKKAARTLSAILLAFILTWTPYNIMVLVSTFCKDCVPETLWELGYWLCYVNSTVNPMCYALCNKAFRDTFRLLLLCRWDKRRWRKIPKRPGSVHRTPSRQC
Procedure text: [3H]Pirenzepine Binding Assay, rat brain membranes
Recorded conditions: rat brain membranes; read-out: M1 [3H]pirenzepine Ki ± SEM
Give the value in µM but do not write µM after it.

Some molecules with known Ki results, for comparison:
INSERT INTO results (molecule, assay_result) VALUES
  ('COC(=O)[C@@H]1C2CCC(C[C@@H]1OC(c1ccc(F)cc1)c1ccc(F)cc1)N2C (stereo partly shown) [Compound 1a]', 0.133),
  ('CN1C2CCC1[C@@H](COC(=O)CCCc1ccc(N)cc1)[C@@H](OC(c1ccc(F)cc1)c1ccc(F)cc1)C2 (stereo partly shown) [Compound 8]', 0.342),
  ('COC(=O)CC[C@@H]1C2CCC(C[C@@H]1OC(c1ccc(F)cc1)c1ccc(F)cc1)N2C (stereo partly shown) [Compound 6]', 3.11),
  ('CCOC(=O)[C@@H]1C2CCC(C[C@@H]1OC(c1ccc(F)cc1)c1ccc(F)cc1)N2 (stereo partly shown) [Compound 9]', 17.1),
  ('C=CCN1C2CCC1[C@@H](C(=O)OCC)[C@@H](OC(c1ccc(F)cc1)c1ccc(F)cc1)C2 (stereo partly shown) [Compound 11]', 11.4),
  ('CCCCN1C2CCC1[C@@H](C(=O)OCC)[C@@H](OC(c1ccc(F)cc1)c1ccc(F)cc1)C2 (stereo partly shown) [Compound 10]', 3.2);

Input line: Recorded Ki of CCOC(=O)[C@@H]1C2CCC(C[C@@H]1OC(c1ccc(F)cc1)c1ccc(F)cc1)N2C (stereo partly shown) [Compound 1b] , please.
Output line: 1.89

###

Target entity: SERT (Rattus norvegicus)
Construct: Membranes from frozen rat midbrain were homogenized; from tissue; host or cells: rat midbrain membranes
Sequence (P31652 whole entry): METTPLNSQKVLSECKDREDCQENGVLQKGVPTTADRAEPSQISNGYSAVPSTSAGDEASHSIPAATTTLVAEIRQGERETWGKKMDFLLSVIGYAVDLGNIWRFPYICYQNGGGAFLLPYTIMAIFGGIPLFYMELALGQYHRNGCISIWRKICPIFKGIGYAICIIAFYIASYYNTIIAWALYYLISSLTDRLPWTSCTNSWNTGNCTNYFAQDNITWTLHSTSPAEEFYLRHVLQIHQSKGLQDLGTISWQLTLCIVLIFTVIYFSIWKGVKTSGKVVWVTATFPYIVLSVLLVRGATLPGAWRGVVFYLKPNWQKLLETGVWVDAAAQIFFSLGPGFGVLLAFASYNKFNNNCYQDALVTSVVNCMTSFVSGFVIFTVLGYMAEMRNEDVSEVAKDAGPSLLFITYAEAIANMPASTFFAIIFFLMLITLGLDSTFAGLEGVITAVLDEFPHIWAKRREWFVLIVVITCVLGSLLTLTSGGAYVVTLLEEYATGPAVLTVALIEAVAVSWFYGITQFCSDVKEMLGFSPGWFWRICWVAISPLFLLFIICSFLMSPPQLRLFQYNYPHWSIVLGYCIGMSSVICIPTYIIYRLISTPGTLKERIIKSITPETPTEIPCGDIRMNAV
Procedure text: [3H]Citalopram Binding Assay, rat midbrain membranes
Recorded conditions: ratio of respective Ki values; greater than 1 = DAT selective
Please use the following Binding selectivity DAT/SERT ranges when assigning a class: zone 1: < 200; zone 2: ≥ 200 and < 300; zone 3: ≥ 300

INSERT INTO assay_data (compound, target_entity, group) VALUES
  ('CCCCN1[C@@H]2CC[C@H]1C[C@@H](OC(c1ccc(F)cc1)c1ccc(F)cc1)C2', 'SERT (Rattus norvegicus)', 'zone 1'),
  ('C=C[C@@H]1C2CCC(C[C@@H]1OC(c1ccc(F)cc1)c1ccc(F)cc1)N2C (some centres unmarked)', 'SERT (Rattus norvegicus)', 'zone 3'),
  ('CCOC(=O)[C@@H]1C2CCC(C[C@@H]1OC(c1ccc(F)cc1)c1ccc(F)cc1)N2C (some centres unmarked)', 'SERT (Rattus norvegicus)', 'zone 2'),
  ('C=CCN1[C@@H]2CC[C@H]1C[C@@H](OC(c1ccc(F)cc1)c1ccc(F)cc1)C2', 'SERT (Rattus norvegicus)', 'zone 3');

Input line: Looking at COC(=O)/C=C/[C@@H]1C2CCC(C[C@@H]1OC(c1ccc(F)cc1)c1ccc(F)cc1)N2C (some centres unmarked) , which class would you pick?
Output line: zone 1

Input line: Lab note: which band did CN1C2CCC1[C@@H](CO)[C@@H](OC(c1ccc(F)cc1)c1ccc(F)cc1)C2 (some centres unmarked) land in?
Output line: zone 2

Input line: Lab log: C=CCN1C2CCC1[C@@H](C(=O)OCC)[C@@H](OC(c1ccc(F)cc1)c1ccc(F)cc1)C2 (some centres unmarked) — assign Binding selectivity DAT/SERT category
Output line: zone 2

Input line: Which Binding selectivity DAT/SERT band matches COC(=O)[C@@H]1C2CCC(C[C@@H]1OC(c1ccc(F)cc1)c1ccc(F)cc1)N2C (some centres unmarked) ?
Output line: zone 2

Input line: Input CCOC(=O)[C@@H]1C2CCC(C[C@@H]1OC(c1ccc(F)cc1)c1ccc(F)cc1)N2 (some centres unmarked) ; output its category
Output line: zone 2

Input line: Using the reported Binding selectivity DAT/SERT, which band applies to COC(=O)CC[C@@H]1C2CCC(C[C@@H]1OC(c1ccc(F)cc1)c1ccc(F)cc1)N2C (some centres unmarked) ?
Output line: zone 2

###

Target entity: DAT (Rattus norvegicus)
Construct: their brains removed to an ice-cooled dish for dissection of the caudate putamen; from tissue; host or cells: rat caudate putamen homogenate
Procedure text: biochemical
Format: binding
Property label: pKi
Kindly note that pKi refers to -log10 of the concentration in mol/L and answer with the value alone.

INSERT INTO results (compound, assay_result) VALUES
  ('CN1C2CCC1[C@@H](CO)[C@@H](OC(c1ccc(F)cc1)c1ccc(F)cc1)C2 (stereo partly shown) [Compound 2]', 8.45),
  ('COC(=O)/C=C/[C@@H]1C2CCC(C[C@@H]1OC(c1ccc(F)cc1)c1ccc(F)cc1)N2C (stereo partly shown) [Compound 5]', 8.30),
  ('CCOC(=O)[C@@H]1[C@@H](OC(c2ccc(Cl)cc2)c2ccc(Cl)cc2)C[C@H]2CC[C@@H]1N2C [Compound S-15]', 7.84);

Let us examine a further case.
Input line: Lookup: pKi / DAT (Rattus norvegicus) / COC(=O)[C@@H]1[C@@H](OC(c2ccc(Cl)cc2)c2ccc(Cl)cc2)C[C@H]2CC[C@@H]1N2C [Compound S-14]
Output line: 7.90

###

Each entry below lists one item and its recorded pKi value.
Target entity: SERT (Rattus norvegicus)
Construct: Membranes from frozen rat midbrain were homogenized; from tissue; host or cells: rat midbrain membranes
Procedure text: [3H]Citalopram Binding Assay, rat midbrain membranes
The quantity pKi is defined as the negative base-10 logarithm of the molar concentration.

INSERT INTO results (mol_smiles, property_label, assay_result) VALUES
  ('CCOC(=O)[C@@H]1[C@@H](OC(c2ccc(Cl)cc2)c2ccc(Cl)cc2)C[C@H]2CC[C@@H]1N2C', 'pKi', 5.81);

# ---- query compound ----
Input line: What pKi value was documented for this compound, `COC(=O)[C@@H]1[C@@H](OC(c2ccc(Cl)cc2)c2ccc(Cl)cc2)C[C@H]2CC[C@@H]1N2C` ?
Output line: 6.28

###

Target entity: DAT (Rattus norvegicus, UniProt P23977)
Construct: their brains removed to an ice-cooled dish for dissection of the caudate putamen; from tissue; host or cells: rat caudate putamen homogenate
Sequence (P23977 whole entry): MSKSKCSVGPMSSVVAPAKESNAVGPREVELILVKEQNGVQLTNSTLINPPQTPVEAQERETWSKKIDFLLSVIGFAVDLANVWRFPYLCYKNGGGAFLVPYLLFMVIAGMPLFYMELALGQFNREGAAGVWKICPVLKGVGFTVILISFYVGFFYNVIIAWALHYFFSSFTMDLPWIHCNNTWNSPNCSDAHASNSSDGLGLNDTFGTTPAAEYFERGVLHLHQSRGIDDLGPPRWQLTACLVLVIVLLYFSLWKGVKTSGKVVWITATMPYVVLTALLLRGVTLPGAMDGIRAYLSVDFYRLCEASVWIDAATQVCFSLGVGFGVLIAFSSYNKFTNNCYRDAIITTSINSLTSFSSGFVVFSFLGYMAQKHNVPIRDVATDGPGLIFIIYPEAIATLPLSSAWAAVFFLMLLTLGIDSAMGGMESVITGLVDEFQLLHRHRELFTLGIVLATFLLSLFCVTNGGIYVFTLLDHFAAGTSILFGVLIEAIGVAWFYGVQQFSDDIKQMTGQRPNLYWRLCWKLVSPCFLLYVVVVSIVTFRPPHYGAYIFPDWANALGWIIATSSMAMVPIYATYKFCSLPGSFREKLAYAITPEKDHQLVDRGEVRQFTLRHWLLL
Procedure text: biochemical
Type: binding
Recorded conditions: read-out: DAT [3H]WIN 35,428 Ki ± SEM
Recorded Ki values for a group of compounds are listed next.
Please give a number only; it is taken to be in nM.

INSERT INTO assay_data (compound, property_label, measurement_units, assay_result) VALUES
  ('CCOC(=O)[C@@H]1C2CCC(C[C@@H]1OC(c1ccc(F)cc1)c1ccc(F)cc1)N2 (stereo partly drawn)', 'Ki', 'nM', 8.87),
  ('CCOC(=O)[C@@H]1C2CCC(C[C@@H]1OC(c1ccc(F)cc1)c1ccc(F)cc1)N2C (stereo partly drawn)', 'Ki', 'nM', 6.87);

In the following, a different compound is considered.
Input line: Item CCCCN1C2CCC1[C@@H](C(=O)OCC)[C@@H](OC(c1ccc(F)cc1)c1ccc(F)cc1)C2 (stereo partly drawn) has what recorded Ki?
Output line: 8.18
